assay: Pharmacokinetics in male Sprague Dawley rats; assay type: in vivo; details: rat, plasma; IV 5 mg/kg, solution, male Sprague Dawley rats, mean±SD, n=3

| Smiles data | clearance (mL/min/kg) |
| --- | --- |
| C=CC(=O)Nc1cccc(-c2cnc3[nH]cc(Cl)c3c2)c1 | 33.4 |

###

The entries below come with measured IC50 values attached.
molecular target: ITK (Homo sapiens (Human)); test: ITK kinase assay (radiometric filter binding, 10 μM ATP); type: biochemical; details: 10-dose IC50 mode, 10 μM ATP; read-out: ITK kinase inhibition
Sequence (Q08881 whole entry): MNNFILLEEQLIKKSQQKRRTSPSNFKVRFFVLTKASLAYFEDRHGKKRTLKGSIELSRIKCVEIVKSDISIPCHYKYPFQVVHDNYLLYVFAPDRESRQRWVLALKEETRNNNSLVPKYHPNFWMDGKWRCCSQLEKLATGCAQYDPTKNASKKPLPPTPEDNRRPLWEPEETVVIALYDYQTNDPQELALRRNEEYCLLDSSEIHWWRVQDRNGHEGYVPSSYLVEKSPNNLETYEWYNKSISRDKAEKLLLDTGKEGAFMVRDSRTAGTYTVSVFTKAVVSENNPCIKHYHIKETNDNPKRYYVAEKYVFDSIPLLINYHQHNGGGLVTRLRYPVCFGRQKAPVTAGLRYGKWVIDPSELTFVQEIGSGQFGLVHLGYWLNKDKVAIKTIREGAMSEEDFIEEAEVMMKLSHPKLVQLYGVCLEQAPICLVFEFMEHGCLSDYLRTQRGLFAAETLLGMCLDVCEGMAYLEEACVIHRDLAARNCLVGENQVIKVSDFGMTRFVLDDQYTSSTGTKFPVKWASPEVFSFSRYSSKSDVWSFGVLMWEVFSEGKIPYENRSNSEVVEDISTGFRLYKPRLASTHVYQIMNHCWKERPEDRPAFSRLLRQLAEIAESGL
Metric: IC50

| Compound | Measurement target | Metric | Result |
| --- | --- | --- | --- |
| C=CC(=O)Nc1cc(-c2cnc3[nH]ccc3c2)ccc1F | ITK (Homo sapiens (Human)) | IC50 | < 100 nM |
| C=CC(=O)Nc1ccccc1-c1cnc2[nH]cc(Cl)c2c1 | ITK (Homo sapiens (Human)) | IC50 | > 1000 nM |
| C#CC(=O)Nc1cc(-c2cnc3[nH]cc(Cl)c3c2)ccc1F | ITK (Homo sapiens (Human)) | IC50 | > 1000 nM |
| C=CC(=O)Nc1ccc(-c2cnc3[nH]ccc3c2)cc1F | ITK (Homo sapiens (Human)) | IC50 | > 1000 nM |
| CC#CC(=O)Nc1cccc(-c2cnc3[nH]cc(Cl)c3c2)n1 | ITK (Homo sapiens (Human)) | IC50 | < 100 nM |
| Cc1cccc(-c2c[nH]c3ncc(-c4cccc(NC(=O)/C=C/CN(C)C)c4)cc23)c1F | ITK (Homo sapiens (Human)) | IC50 | > 100 nM |
| C=CC(=O)Nc1cc(-c2cnc3[nH]cc(Cl)c3c2)ccc1Cl | ITK (Homo sapiens (Human)) | IC50 | > 1000 nM |
| O=C(CF)Nc1cccc(-c2cnc3[nH]cc(Cl)c3c2)c1 | ITK (Homo sapiens (Human)) | IC50 | > 1000 nM |
| C=CC(=O)Nc1cc(F)cc(-c2cnc3[nH]cc(-c4cc(F)cc(F)c4OC)c3c2)c1C | ITK (Homo sapiens (Human)) | IC50 | < 100 nM |
| C#CC(=O)Nc1cccc(-c2cnc3[nH]ccc3c2)n1 | ITK (Homo sapiens (Human)) | IC50 | < 100 nM |
| C#CC(=O)Nc1cccc(-c2cnc3[nH]cc(C)c3c2)c1 | ITK (Homo sapiens (Human)) | IC50 | > 100 nM |
| C=CC(=O)N1CCCC1C(=O)Nc1cccc(-c2cnc3[nH]cc(C)c3c2)c1 (stereo not drawn) | ITK (Homo sapiens (Human)) | IC50 | > 100 nM |
| C=CC(=O)N1CCCC1C(=O)Nc1cnc2[nH]ccc2c1 (stereo not drawn) | ITK (Homo sapiens (Human)) | IC50 | > 100 nM |
| CCC#CC(=O)Nc1cccc(-c2cnc3[nH]cc(-c4cc(F)cc(F)c4OC)c3c2)c1 | ITK (Homo sapiens (Human)) | IC50 | > 100 nM |
| C=CC(=O)Nc1cccc(-c2cnc3[nH]cc(-c4cc5ccc(C)cc5[nH]4)c3n2)c1 | ITK (Homo sapiens (Human)) | IC50 | > 100 nM |
| CCC#CC(=O)Nc1cccc(-c2cnc3[nH]cc(-c4cccc(S(=O)(=O)N(C)C(C)(C)C)c4)c3c2)c1 | ITK (Homo sapiens (Human)) | IC50 | > 100 nM |
| C=CC(=O)Nc1cccc(-c2cnc3[nH]cc(-c4cc5ccccc5[nH]4)c3c2)c1 [Example 66] | ITK (Homo sapiens (Human)) | IC50 | < 100 nM |
| CC#CC(=O)Nc1cccc(-c2cnc3[nH]cc(C)c3c2)n1 | ITK (Homo sapiens (Human)) | IC50 | < 100 nM |

###

experiment: Pharmacokinetics in male Sprague Dawley rats; format: in vivo; settings: rat, plasma; PO 20 mg/kg, solution, male Sprague Dawley rats, mean±SD, n=3; read-out: Cmax

| Smiles data | Cmax (ng/mL) |
| --- | --- |
| C=CC(=O)Nc1cccc(-c2cnc3[nH]cc(Cl)c3c2)c1 | 853 |

###

target: JAK3 (Homo sapiens (Human), UniProt P52333); test: JAK3 kinase assay (radiometric filter binding, 10 μM ATP); format: biochemical; settings: 10-dose IC50 mode, 10 μM ATP; read-out: JAK3 kinase inhibition
Sequence (P52333 whole entry): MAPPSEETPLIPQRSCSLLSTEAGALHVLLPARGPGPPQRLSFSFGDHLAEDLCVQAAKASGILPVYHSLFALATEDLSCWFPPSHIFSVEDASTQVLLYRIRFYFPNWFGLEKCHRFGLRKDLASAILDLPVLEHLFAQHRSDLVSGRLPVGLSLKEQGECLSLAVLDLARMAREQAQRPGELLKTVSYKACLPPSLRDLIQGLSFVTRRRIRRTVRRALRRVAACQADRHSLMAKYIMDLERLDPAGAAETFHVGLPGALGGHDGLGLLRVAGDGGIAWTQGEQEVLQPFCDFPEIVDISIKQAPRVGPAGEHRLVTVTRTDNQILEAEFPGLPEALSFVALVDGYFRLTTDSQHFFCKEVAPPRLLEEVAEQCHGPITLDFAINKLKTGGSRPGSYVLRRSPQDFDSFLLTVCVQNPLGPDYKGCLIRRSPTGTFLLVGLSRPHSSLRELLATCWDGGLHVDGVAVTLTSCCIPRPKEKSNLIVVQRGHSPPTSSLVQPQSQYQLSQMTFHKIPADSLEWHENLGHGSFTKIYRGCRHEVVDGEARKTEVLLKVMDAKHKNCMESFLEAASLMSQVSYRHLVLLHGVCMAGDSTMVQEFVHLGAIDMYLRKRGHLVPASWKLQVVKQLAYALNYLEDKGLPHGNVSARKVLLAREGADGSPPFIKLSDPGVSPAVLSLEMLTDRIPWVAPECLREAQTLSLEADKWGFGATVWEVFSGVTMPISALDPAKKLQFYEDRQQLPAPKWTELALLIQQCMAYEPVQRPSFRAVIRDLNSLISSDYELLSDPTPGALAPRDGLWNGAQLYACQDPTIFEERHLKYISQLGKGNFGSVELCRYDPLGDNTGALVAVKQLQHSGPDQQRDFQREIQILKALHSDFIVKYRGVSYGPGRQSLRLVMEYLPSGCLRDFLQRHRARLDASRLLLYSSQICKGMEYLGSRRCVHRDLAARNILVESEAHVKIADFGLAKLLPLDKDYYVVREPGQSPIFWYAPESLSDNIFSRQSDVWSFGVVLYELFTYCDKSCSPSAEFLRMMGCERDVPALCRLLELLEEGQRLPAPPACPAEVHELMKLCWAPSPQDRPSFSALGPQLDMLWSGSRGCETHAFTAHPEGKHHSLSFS
As shown below, each of these compounds has a reported IC50 value.
Metric: IC50

| Compound | Metric | Result |
| --- | --- | --- |
| C=CC(=O)Nc1ccccc1-c1cnc2[nH]cc(C)c2c1 [Example 17] | IC50 | > 1000 nM |
| C=CC(=O)Nc1cccc(-c2cnc3[nH]cc(-c4cccc(S(=O)(=O)N(C)C)c4)c3c2)c1 [Example 34] | IC50 | > 100 nM |
| COc1c(F)cc(F)cc1-c1c[nH]c2ncc(-c3cc(NC(=O)/C=C/CN(C)C)ccc3F)cc12 [Example 133] | IC50 | > 100 nM |
| C=CC(=O)Nc1cc(-c2cnc3[nH]cc(-c4cc(F)cc(F)c4OC)c3c2)ccc1Cl [Example 41] | IC50 | > 100 nM |
| C=CC(=O)Nc1cc(-c2cnc3[nH]cc(C)c3c2)ccc1Cl [Example 15] | IC50 | > 100 nM |
| Cc1n[nH]c2ncc(-c3ccc(Cl)c(NC(=O)/C=C/N(C)C)c3)cc12 [Example 49] | IC50 | > 100 nM |
| CN(C)C/C=C/C(=O)Nc1cccc(-c2cnc3[nH]cc(Cl)c3c2)c1 [Example 153] | IC50 | < 100 nM |
| C=CC(=O)N1CCCC1C(=O)Nc1cccc(-c2cnc3[nH]cc(C)c3c2)c1 (centres unmarked) [Example 72] | IC50 | > 100 nM |

###

target: ITK (Homo sapiens (Human)); experiment: ITK kinase assay (radiometric filter binding, 10 μM ATP); format: biochemical; details: 10-dose IC50 mode, 10 μM ATP; read-out: ITK kinase inhibition
Metric: IC50

| Molecule | Result |
| --- | --- |
| C=CC(=O)Nc1cccc(-c2cnc3[nH]cc(-c4cc5ccc(C)cc5[nH]4)c3c2)c1 | > 1000 nM |
| CC#CC(=O)Nc1cccc(-c2cnc3[nH]cc(C)c3c2)c1 | < 100 nM |
| Cc1c[nH]c2ncc(-c3cccc(NC(=O)/C=C/CN(C)C)c3)cc12 | > 100 nM |
| C#CC(=O)Nc1cccc(-c2cnc3[nH]cc(-c4cc(F)cc(F)c4OC)c3c2)c1 | > 100 nM |
| C=CC(=O)Nc1cc(-c2cnc3[nH]ccc3c2)cc(F)c1F | > 1000 nM |
| C=CC(=O)Nc1cccc(-c2cnc3[nH]cc(-c4cc5ccccc5[nH]4)c3c2)c1 [Example 74] | > 1000 nM |
| COc1c(F)cc(F)cc1-c1c[nH]c2ncc(-c3cc(F)cc(NC(=O)/C(C)=C/C(C)(C)C)c3C)cc12 | < 100 nM |
| CC/C=C/C(=O)Nc1cc(-c2cnc3[nH]cc(Cl)c3c2)ccc1Cl | > 1000 nM |
| CC#CC(=O)Nc1cc(-c2cnc3[nH]ccc3c2)ccc1F | > 100 nM |

###

experiment: Pharmacokinetics in male Sprague Dawley rats; type: in vivo; conditions: rat, plasma; PO 20 mg/kg, solution, male Sprague Dawley rats, mean±SD, n=3
Metric: AUC(0-t)

| Smiles data | Result |
| --- | --- |
| C=CC(=O)Nc1cccc(-c2cnc3[nH]cc(Cl)c3c2)c1 | 1580 ng·h/mL |

###

molecular target: ITK (Homo sapiens (Human)); assay: ITK kinase assay (radiometric filter binding, 10 μM ATP); assay type: biochemical; details: 10-dose IC50 mode, 10 μM ATP; read-out: ITK kinase inhibition
pIC50: −log10 of the molar value.

| Smiles data | pIC50 |
| --- | --- |
| C#CC(=O)Nc1cccc(-c2cnc3[nH]cc(Cl)c3c2)c1 | > 7.00 |
| C=CC(=O)Nc1cccc(-c2cnc3[nH]cc(-c4cccc(C(=O)OCC)c4)c3c2)c1 | > 7.00 |
| CCC#CC(=O)Nc1cc(-c2cnc3[nH]ccc3c2)ccc1F | < 6.00 |
| CCC#CC(=O)Nc1cccc(-c2cnc3[nH]cc(Cl)c3c2)c1 | > 7.00 |
| Cc1c[nH]c2ncc(-c3cccc(NC(=O)CF)c3)cc12 | < 6.00 |
| COc1c(F)cc(F)cc1-c1c[nH]c2ncc(-c3cc(NC(=O)/C=C/CN(C)C)ccc3F)cc12 | < 7.00 |
| C#CC(=O)Nc1cccc(-c2cnc3[nH]cc(-c4cccc(S(=O)(=O)N(C)C(C)(C)C)c4)c3n2)c1 | < 7.00 |
| CC#CC(=O)Nc1cccc(-c2cnc3[nH]cc(Cl)c3c2)c1 | > 7.00 |
| CC/C=C/C(=O)Nc1cc(-c2cnc3[nH]nc(C)c3c2)ccc1Cl | < 6.00 |
